Listing of recorded log10 MIC by entry.
- System: Staphylococcus aureus (ATCC25923)
- assay method text: MIC, broth microdilution (CLSI), Staphylococcus aureus ATCC25923
- experimental context: ATCC25923, read-out: S. aureus ("Clinical") MIC
experimental readout: log10 MIC (log10 of the value in µg/mL)

INSERT INTO measurements (compound, observed_value) VALUES
  ('CN(C)CCCN1c2ccccc2Sc2cc(-c3cc4cc(CN)ccc4[nH]3)ccc21', 0.85),
  ('NC1CCCC(CNc2cc(C(F)(F)F)cc3c2Nc2ccccc2S3)C1 (stereo not shown)', 0.48),
  ('Nc1cc(C(F)(F)F)cc2c1Nc1ccccc1S2', 0.60),
  ('NCC(O)CNC(=O)c1cc2c(c([N+](=O)[O-])c1)Nc1ccccc1S2 (stereo not shown)', 1.81),
  ('CN(C)CCCN1c2ccccc2Sc2cc(-c3ccnc(F)c3)ccc21', 1.38),
  ('NCCCNc1cc(C(F)(F)F)cc2c1Nc1ccccc1S2', 0.60),
  ('NCCNC1CCCC(C(=O)Nc2cc(C(F)(F)F)cc3c2Nc2ccccc2S3)C1 (stereo not shown)', 1.15),
  ('FC(F)(F)c1cc(NC2CCNC2)c2c(c1)Sc1ccccc1N2 (stereo not shown)', 0.48),
  ('COc1cc(-c2ccc3c(c2)Sc2ccccc2N3CCCN(C)C)ccn1', 1.40),
  ('C[C@@H](N)CC(=O)Nc1cc(C(F)(F)F)cc2c1Nc1ccccc1S2', 1.11),
  ('Nc1cc(C(F)(F)F)cc2c1N(CCCN1CCNCC1)c1ccccc1S2', 1.51),
  ('NC1CC(C(=O)Nc2cc(C(F)(F)F)cc3c2Nc2ccccc2S3)CCN1 (stereo not shown)', 1.72),
  ('FC(F)(F)c1cc(NC2CCNCC2)c2c(c1)Sc1ccccc1N2', 0.48);

###

- System: Staphylococcus aureus subsp. aureus (ATCC29213)
- assay method text: MIC, broth microdilution (CLSI), Staphylococcus aureus subsp. aureus ATCC29213
- Type: cell-based
- experimental context: ATCC29213, Table 15, read-out: S. aureus ("wound") (MIC)
experimental readout: MIC (µg/mL)

INSERT INTO assay_data (compound, experimental_readout, observed_value) VALUES
  ('NCCCN1c2ccc(-c3cc4ccccc4[nH]3)cc2Sc2cc(N3CCNCC3)ccc21.O=C(O)C(F)(F)F', 'MIC', 4),
  ('Cl.NCCN1CCC(Nc2cc(C(F)(F)F)cc3c2Nc2ccc(N4CCC(C(N)=O)C4)cc2S3)CC1 (centres unmarked)', 'MIC', 4),
  ('CC1(C)CCCN(c2ccc3c(c2)Sc2cc(C(F)(F)F)cc(NC4CCN(CCN)CC4)c2N3)C1.Cl.Cl', 'MIC', 2),
  ('CC1CCN(c2ccc3c(c2)Sc2cc(C(F)(F)F)cc(NC4CCN(CCN)CC4)c2N3)CC1.Cl.Cl', 'MIC', 2),
  ('NCCCN1c2ccc(-c3cc4ccccc4[nH]3)cc2Sc2cc(C(F)(F)F)ccc21', 'MIC', 1),
  ('CC1CCN(c2ccc3c(c2)Sc2cc(C(F)(F)F)cc(NC4CCN(CCN)CC4)c2N3)C1.Cl.Cl (centres unmarked)', 'MIC', 2),
  ('CN(C)CCCN1c2ccccc2Sc2cc(-c3cc4ccccc4n3CCN)ccc21', 'MIC', 16),
  ('NCCN1CCC(Nc2cc(C(F)(F)F)cc3c2Nc2ccccc2S3)CC1', 'MIC', 8),
  ('Cl.NCCNCCCNc1cc(C(F)(F)F)cc2c1Nc1ccc(Br)cc1S2', 'MIC', 8),
  ('Cl.NCCN1CCC(Nc2cc(C(F)(F)F)cc3c2Nc2ccc(N4CC5(CCC5)C4)cc2S3)CC1', 'MIC', 2),
  ('CN(C)CCCN1c2ccccc2Sc2cc(-c3cc4cc(C#N)ccc4[nH]3)ccc21', 'MIC', 2);
